Catalogue of Ratio ED50 readings, one per entry.
Target: Vitamin D3 receptor (Homo sapiens)
Sequence (whole entry): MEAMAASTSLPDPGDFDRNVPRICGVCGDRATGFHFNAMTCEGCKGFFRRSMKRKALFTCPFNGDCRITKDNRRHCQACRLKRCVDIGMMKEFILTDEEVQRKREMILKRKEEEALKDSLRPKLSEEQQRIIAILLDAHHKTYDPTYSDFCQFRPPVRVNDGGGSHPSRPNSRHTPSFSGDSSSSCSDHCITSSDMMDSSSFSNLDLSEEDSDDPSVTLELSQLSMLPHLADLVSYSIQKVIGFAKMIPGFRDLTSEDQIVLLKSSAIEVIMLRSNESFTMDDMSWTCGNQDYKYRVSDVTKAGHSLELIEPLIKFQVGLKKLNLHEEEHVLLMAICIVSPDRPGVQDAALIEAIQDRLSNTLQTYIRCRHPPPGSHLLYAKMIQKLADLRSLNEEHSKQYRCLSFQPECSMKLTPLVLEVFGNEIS
Assay: Potency index, ratio of ED50 for 1-alpha,25-(OH)2D3 to ED50 for test compound for agonist activity at VDR in human HL60 cells assessed as induction of cell differentiation of promyelocytes to monocytes after 4 days by NBT reduction assay
Type: cell-based
Details: HL-60
When you answer, write just the number.

Please review the following examples before continuing.
| Smiles Str | Test Target | Ratio ED50 |
| --- | --- | --- |
| C=C1[C@H](O)CC(=C/C=C2\CCC[C@]3(C)[C@@H]([C@@H](C)C(=C)CCCC(C)(C)O)CC[C@@H]23)C[C@H]1O | Vitamin D3 receptor (Homo sapiens) | 50 |
| C=C1[C@H](O)CC(=C/C=C2\CCC[C@]3(C)[C@@H]([C@@H](C)CCCC(C)(C)O)CC[C@@H]23)C[C@H]1O | Vitamin D3 receptor (Homo sapiens) | 25 |
| C=C1[C@H](O)CC(=C/C=C2\CCC[C@]3(C)[C@@H]([C@@H](C)C(=C)CCC(C)C)CC[C@@H]23)C[C@H]1O | Vitamin D3 receptor (Homo sapiens) | 0.1 |

Switching to the query record.
I have this molecule here, C=C1[C@H](O)CC(=C/C=C2\CCC[C@]3(C)[C@@H]([C@@H](C)C(=C)CCC(C)(C)O)CC[C@@H]23)C[C@H]1O , and I need its recorded Ratio ED50.
4

* * *

biological target: Vitamin D3 receptor (Rattus norvegicus); assay: Potency index, ratio of ED50 for 1-alpha,25-(OH)2D3 to ED50 for test compound for agonist activity at rat recombinant full length VDR expressed in rat ROS 17/2.8 cells transfected with 24-hydroxylase gene promoter assessed as transcriptional activation after 16 hrs by luciferase reporter gene assay; format: cell-based
Catalogue of Ratio ED50 readings, one per entry.
When you answer, write just the number.

| Smiles Str | Recorded Measurement |
| --- | --- |
| C=C1[C@H](O)CC(=C/C=C2\CCC[C@]3(C)[C@@H]([C@@H](C)C(=C)CCC(C)(C)O)CC[C@@H]23)C[C@H]1O | 2.5 |
| C=C1[C@H](O)CC(=C/C=C2\CCC[C@]3(C)[C@@H]([C@@H](C)CCCC(C)(C)O)CC[C@@H]23)C[C@H]1O | 29 |
| C=C1[C@H](O)CC(=C/C=C2\CCC[C@]3(C)[C@@H]([C@@H](C)C(=C)CCCC(O)(CC)CC)CC[C@@H]23)C[C@H]1O | 6.7 |

Record C=C1[C@H](O)CC(=C/C=C2\CCC[C@]3(C)[C@@H]([C@@H](C)C(=C)CCC4(O)CCCC4)CC[C@@H]23)C[C@H]1O : what is its Ratio ED50 with Vitamin D3 receptor (Rattus norvegicus)?
20

Record C=C1[C@H](O)CC(=C/C=C2\CCC[C@]3(C)[C@@H]([C@@H](C)C(=C)CCC(C)C)CC[C@@H]23)C[C@H]1O : what is its Ratio ED50 with Vitamin D3 receptor (Rattus norvegicus)?
0.05

Record C=C1[C@H](O)CC(=C/C=C2\CCC[C@]3(C)[C@@H]([C@@H](C)C(=C)CCCC(C)(C)O)CC[C@@H]23)C[C@H]1O : what is its Ratio ED50 with Vitamin D3 receptor (Rattus norvegicus)?
20

Record C=C1[C@H](O)CC(=C/C=C2\CCC[C@]3(C)[C@@H]([C@@H](C)C(=C)CCC(O)(CC)CC)CC[C@@H]23)C[C@H]1O : what is its Ratio ED50 with Vitamin D3 receptor (Rattus norvegicus)?
6.7

* * *

tested on: Rattus norvegicus; test: Induction of bone calcium mobilization in vitamin D-deficient Sprague-Dawley rat assessed as serum calcium level at 87 pmol, ip administered as 4 consecutive daily doses measured after 24 hrs post last dose by spectrometry relative to 1alpha,25-(OH)2D3; type: functional, organism-based
Active and inactive are the calls of the source. The rule behind the calls is not given here.
Experimental Endpoint: Activity

Please review the following examples before continuing.
| Smiles Str | Test Target | Activity |
| --- | --- | --- |
| C=C1[C@H](O)CC(=C/C=C2\CCC[C@]3(C)[C@@H]([C@@H](C)C(=C)CCCC(C)(C)O)CC[C@@H]23)C[C@H]1O | Rattus norvegicus | Active |
| C=C1[C@H](O)CC(=C/C=C2\CCC[C@]3(C)[C@@H]([C@@H](C)C(=C)CCCC(O)(CC)CC)CC[C@@H]23)C[C@H]1O | Rattus norvegicus | Active |
| C=C1[C@H](O)CC(=C/C=C2\CCC[C@]3(C)[C@@H]([C@@H](C)C(=C)CCC(O)(CC)CC)CC[C@@H]23)C[C@H]1O | Rattus norvegicus | Active |
| C=C1[C@H](O)CC(=C/C=C2\CCC[C@]3(C)[C@@H]([C@@H](C)C(=C)CCC(C)(C)O)CC[C@@H]23)C[C@H]1O | Rattus norvegicus | Active |
| C=C1[C@H](O)CC(=C/C=C2\CCC[C@]3(C)[C@@H]([C@@H](C)C(=C)CCC(C)C)CC[C@@H]23)C[C@H]1O | Rattus norvegicus | Active |

Switching to the query record.
I have this compound here, C=C1[C@H](O)CC(=C/C=C2\CCC[C@]3(C)[C@@H]([C@@H](C)C(=C)CCC4(O)CCCC4)CC[C@@H]23)C[C@H]1O , and I need its recorded Activity.
Active

* * *

target: Vitamin D3 receptor (Homo sapiens) (UniProt P11473); assay: Potency index, ratio of ED50 for 1-alpha,25-(OH)2D3 to ED50 for test compound for agonist activity at VDR in human HL60 cells assessed as induction of cell differentiation of promyelocytes to monocytes after 4 days by NBT reduction assay; format: cell-based; details: HL-60
Catalogue of Ratio ED50 readings, one per entry.

| Smiles Str | Test Target | Ratio ED50 |
| --- | --- | --- |
| C=C1[C@H](O)CC(=C/C=C2\CCC[C@]3(C)[C@@H]([C@@H](C)C(=C)CCCC(O)(CC)CC)CC[C@@H]23)C[C@H]1O | Vitamin D3 receptor (Homo sapiens) (UniProt P11473) | 50 |
| C=C1[C@H](O)CC(=C/C=C2\CCC[C@]3(C)[C@@H]([C@@H](C)C(=C)CCC4(O)CCCC4)CC[C@@H]23)C[C@H]1O | Vitamin D3 receptor (Homo sapiens) (UniProt P11473) | 29 |

Switching to the query record.
I have this compound here, C=C1[C@H](O)CC(=C/C=C2\CCC[C@]3(C)[C@@H]([C@@H](C)C(=C)CCC(O)(CC)CC)CC[C@@H]23)C[C@H]1O , and I need its recorded Ratio ED50.
10

* * *

target: Vitamin D3 receptor (Rattus norvegicus) (UniProt P13053); assay: Potency index, ratio of Ki for 1-alpha,25-(OH)2D3 to Ki for test compound for displacement of [3H]1-alpha,25-(OH)2D3 from rat recombinant full length VDR
Sequence (P13053 whole entry): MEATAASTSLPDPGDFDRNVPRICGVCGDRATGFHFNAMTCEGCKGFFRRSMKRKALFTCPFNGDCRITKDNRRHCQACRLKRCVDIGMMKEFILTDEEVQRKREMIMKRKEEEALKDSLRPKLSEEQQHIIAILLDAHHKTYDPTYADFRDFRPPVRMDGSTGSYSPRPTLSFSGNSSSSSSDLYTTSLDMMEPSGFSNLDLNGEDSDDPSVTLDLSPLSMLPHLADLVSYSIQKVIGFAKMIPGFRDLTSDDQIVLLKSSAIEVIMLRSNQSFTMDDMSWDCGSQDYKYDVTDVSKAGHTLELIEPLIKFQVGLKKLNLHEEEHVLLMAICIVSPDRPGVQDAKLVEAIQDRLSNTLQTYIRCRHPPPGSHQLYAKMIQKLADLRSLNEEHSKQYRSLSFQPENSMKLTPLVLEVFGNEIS
Experimental Endpoint: Ratio Ki
When you answer, write just the number.

Please review the following examples before continuing.
| Smiles Str | Test Target | Experimental Endpoint | Recorded Measurement |
| --- | --- | --- | --- |
| C=C1[C@H](O)CC(=C/C=C2\CCC[C@]3(C)[C@@H]([C@@H](C)C(=C)CCC(O)(CC)CC)CC[C@@H]23)C[C@H]1O | Vitamin D3 receptor (Rattus norvegicus) (UniProt P13053) | Ratio Ki | 1 |
| C=C1[C@H](O)CC(=C/C=C2\CCC[C@]3(C)[C@@H]([C@@H](C)C(=C)CCC4(O)CCCC4)CC[C@@H]23)C[C@H]1O | Vitamin D3 receptor (Rattus norvegicus) (UniProt P13053) | Ratio Ki | 1 |
| C=C1[C@H](O)CC(=C/C=C2\CCC[C@]3(C)[C@@H]([C@@H](C)C(=C)CCCC(O)(CC)CC)CC[C@@H]23)C[C@H]1O | Vitamin D3 receptor (Rattus norvegicus) (UniProt P13053) | Ratio Ki | 0.5 |
| C=C1[C@H](O)CC(=C/C=C2\CCC[C@]3(C)[C@@H]([C@@H](C)C(=C)CCC(C)C)CC[C@@H]23)C[C@H]1O | Vitamin D3 receptor (Rattus norvegicus) (UniProt P13053) | Ratio Ki | 0.01 |
| C=C1[C@H](O)CC(=C/C=C2\CCC[C@]3(C)[C@@H]([C@@H](C)CCCC(C)(C)O)CC[C@@H]23)C[C@H]1O | Vitamin D3 receptor (Rattus norvegicus) (UniProt P13053) | Ratio Ki | 1 |

I have this compound here, C=C1[C@H](O)CC(=C/C=C2\CCC[C@]3(C)[C@@H]([C@@H](C)C(=C)CCCC(C)(C)O)CC[C@@H]23)C[C@H]1O , and I need its recorded Ratio Ki.
1

I have this compound here, C=C1[C@H](O)CC(=C/C=C2\CCC[C@]3(C)[C@@H]([C@@H](C)C(=C)CCC(C)(C)O)CC[C@@H]23)C[C@H]1O , and I need its recorded Ratio Ki.
0.5
